Reported binding signal values are given for each entry in this list.
# subject-of-test: MBP-FoxP3dN (Mus musculus, UniProt Q99JB6 188-423)
# Sequence: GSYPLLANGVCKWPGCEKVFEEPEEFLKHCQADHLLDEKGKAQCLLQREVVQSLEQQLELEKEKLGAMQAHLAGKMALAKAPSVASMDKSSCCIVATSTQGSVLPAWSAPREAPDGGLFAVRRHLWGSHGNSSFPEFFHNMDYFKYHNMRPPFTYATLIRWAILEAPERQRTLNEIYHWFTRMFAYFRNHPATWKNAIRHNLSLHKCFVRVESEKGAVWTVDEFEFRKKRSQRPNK
# experimental-details: PD-seq (MBP pull-down with sequencing); 20 mM Tris-HCl pH 7.5, 100 mM NaCl, 1.5 mM MgCl2, 0.4 uM protein, 0.1 uM dsDNA library, 30 min, room temperature, amylose pull-down; high values mean tight binding
# condition-details: protein: recombinant; tags: His6-MBP; chain copies: 2; dsDNA, one strand shown
Whole data set: some 16,000 sequences, median “rpm ratio (pull-down/input)” near 0.5, cut for the highest 2% near 5.5. The full list was thinned out, with the highest values kept by preference.
endpoint: binding signal

- GATGATTGTTCTCCCAGCTGATGAATTTTCTGTGTCGAGTAAACAAATTTTCCTAATCTTTCTGTTCAAGCGCCATCTAC: 0.415 RPM ratio (pull-down/input)
- GATGATTGTTCTCCCAGCTGATGAATTTGTTGTGTCGAGTAAACAAATTTTCCTAATCTTTCTGTTCAAGCGCCATCTAC: 8.35 RPM ratio (pull-down/input)
- GATGATTGTTCTCCCAGCTGATGAATTCGCGCATTCGAGTAAACAAATTTTCCTAATCTTTCTGTTCAAGCGCCATCTAC: 7.06 RPM ratio (pull-down/input)
- GATGATTGTTCTCCCAGCTGATGAATTCGTATATTCGAGTAAACAAATTTTCCTAATCTTTCTGTTCAAGCGCCATCTAC: 2.61 RPM ratio (pull-down/input)
- GATGATTGTTCTCCCAGCTGATGAATTGTGATTGTCGAGTAAACAAATTTTCCTAATCTTTCTGTTCAAGCGCCATCTAC: 4.91 RPM ratio (pull-down/input)
- GATGATTGTTCTCCCAGCTGATGAATTTGTGTATTCGAGTAAACAAATTTTCCTAATCTTTCTGTTCAAGCGCCATCTAC: 6.95 RPM ratio (pull-down/input)
- GATGATTGTTCTCCCAGCTGATGAATTTGTATATTCGAGTAAACAAATTTTCCTAATCTTTCTGTTCAAGCGCCATCTAC: 6.34 RPM ratio (pull-down/input)
- GATGATTGTTCTCCCAGCTGATGAATTCACGCATTCGAGTAAACAAATTTTCCTAATCTTTCTGTTCAAGCGCCATCTAC: 5.67 RPM ratio (pull-down/input)
- GATGATTGTTCTCCCAGCTGATGAATTGTATATTTCGAGTAAACAAATTTTCCTAATCTTTCTGTTCAAGCGCCATCTAC: 3.17 RPM ratio (pull-down/input)
- GATGATTGTTCTCCCAGCTGATGAATTAGTCCGCTCGAGTAAACAAATTTTCCTAATCTTTCTGTTCAAGCGCCATCTAC: 0.349 RPM ratio (pull-down/input)
- GATGATTGTTCTCCCAGCTGATGAATTGATTGTGTCGAGTAAACAAATTTTCCTAATCTTTCTGTTCAAGCGCCATCTAC: 3.72 RPM ratio (pull-down/input)
- GATGATTGTTCTCCCAGCTGATGAATTTGTGTCGTCGAGTAAACAAATTTTCCTAATCTTTCTGTTCAAGCGCCATCTAC: 5 RPM ratio (pull-down/input)
- GATGATTGTTCTCCCAGCTGATGAATTTTTGTATTCGAGTAAACAAATTTTCCTAATCTTTCTGTTCAAGCGCCATCTAC: 2.57 RPM ratio (pull-down/input)
- GATGATTGTTCTCCCAGCTGATGAATTGTGTAATTCGAGTAAACAAATTTTCCTAATCTTTCTGTTCAAGCGCCATCTAC: 3.19 RPM ratio (pull-down/input)
- GATGATTGTTCTCCCAGCTGATGAATTTCTGTATTCGAGTAAACAAATTTTCCTAATCTTTCTGTTCAAGCGCCATCTAC: 1.38 RPM ratio (pull-down/input)
